test_system: full-length SARM1 (FL-SARM1) (Homo sapiens, UniProt Q6SZW1)
Sequence (Q6SZW1 28-724): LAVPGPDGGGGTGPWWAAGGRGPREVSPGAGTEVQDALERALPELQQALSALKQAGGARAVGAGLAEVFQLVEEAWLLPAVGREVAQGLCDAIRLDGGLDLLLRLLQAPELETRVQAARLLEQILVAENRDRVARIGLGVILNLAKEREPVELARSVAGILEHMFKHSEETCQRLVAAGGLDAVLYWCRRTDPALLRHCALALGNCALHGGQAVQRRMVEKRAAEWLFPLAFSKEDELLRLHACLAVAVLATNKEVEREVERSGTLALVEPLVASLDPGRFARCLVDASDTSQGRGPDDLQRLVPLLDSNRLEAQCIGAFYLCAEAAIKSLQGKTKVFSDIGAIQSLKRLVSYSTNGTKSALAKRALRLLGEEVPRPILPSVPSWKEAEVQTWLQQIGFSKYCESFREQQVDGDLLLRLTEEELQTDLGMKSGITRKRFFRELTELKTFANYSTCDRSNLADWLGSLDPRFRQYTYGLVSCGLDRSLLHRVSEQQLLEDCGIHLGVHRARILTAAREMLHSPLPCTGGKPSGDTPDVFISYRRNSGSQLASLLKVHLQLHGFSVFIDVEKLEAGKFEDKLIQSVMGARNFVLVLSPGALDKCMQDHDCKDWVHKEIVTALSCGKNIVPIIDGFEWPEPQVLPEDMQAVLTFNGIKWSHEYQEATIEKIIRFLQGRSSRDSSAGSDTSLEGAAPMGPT
protocol_text: FL-SARM1 cellular lysate assay (NAD/NADH-Glo readout of remaining NAD+)
test_parameters: Activity (μM), SARM1 cellular lysate from transfected HEK293T cells, NAD+ and NMN, 11 point curve
measurement_name: IC50 (µM)
Give bare numbers, in µM.

Field: example entries. Status: answers known.
* Cc1ccc(NC(=O)N2C3C[C@H](OC(F)F)C[C@H]2C3)cc1-c1cncc(F)c1 | 0.09
* COC[C@H]1CC[C@H]2CC1N2C(=O)Nc1ccc(C)c(-c2cncc(F)c2)c1 | 1.7
* Cc1ccc(NC(=O)N2C3CCCC2C3)cc1-c1ccnnc1 | 25.9
* Cc1ccc(NC(=O)N2C3C[C@@H]2C[C@@H](C(C)(C)O)C3)cc1-c1cncc(F)c1 | 23.9

I'm hoping you can list IC50 for every compound here, please.
1. O=C(Nc1ccc(CC(F)F)c(-c2cncc(F)c2)c1)N1C2CCCC1C2
2. Cc1ccc(NC(=O)N2[C@H](C)CCC[C@@H]2C)cc1-c1cncc(F)c1
3. COC[C@H]1C2CCC[C@H]1N2C(=O)Nc1ccc(C)c(-c2cncc(F)c2)c1
4. Cc1ccc(NC(=O)N2C3CCCC2C3)cc1-c1cccnc1
5. Cc1ccc(NC(=O)N2C3CCCC2C3)cc1-c1cnccc1C#N
6. Cc1ccc(NC(=O)N2C3C[C@H](CF)C[C@@H]2C3)cc1-c1cncc(F)c1

-- reply
1: 0.9; 2: 1.5; 3: 17.2; 4: 0.2; 5: 1.1; 6: 0.06

----------
test_system: full-length SARM1 (FL-SARM1) (Homo sapiens, UniProt Q6SZW1)
protocol_text: FL-SARM1 cellular lysate assay (NAD/NADH-Glo readout of remaining NAD+)
test_parameters: Activity, SARM1 cellular lysate from transfected HEK293T cells, NAD+ and NMN, 11 point curve
measurement_name: IC50

Field: example entries. Status: answers known.
* Cc1ccc(NC(=O)N2C3CCCC2C3)cc1-c1cnccc1C#N [Example 62] | 1000 to 10000 nM
* CCO[C@H]1CC2C[C@H](C1)N2C(=O)Nc1ccc(C)c(-c2cncc(F)c2)c1 [Example 39] | 1000 to 10000 nM

Attention now turns to another entry.
-- ask I am curious: what IC50 value has been reported for Cc1ccc(NC(=O)N2C3CCCC2(C#N)C3)cc1-c1cncc(F)c1 (stereo not drawn) [Example 96] ?
-- reply 0.1 to 1000 nM
